These data points were gathered from patent CN115028722A.

# ASSAYED TARGET: T1, 包含有His标签的重组人源TSLP蛋白(rhTSLP-His) (human)
# T1 construct: also called rhTSLP-His重组蛋白; rhTSLP-His蛋白
# ASSAY INFO: cell ELISA: antibody blocks binding of rhTSLP-His to hTSLPR/hIL-7Rα-293T/17 cells
Reported IC50 values are given for each entry in this list.
Write the figure, then the unit, nothing else.

Some binders with known IC50 results, for comparison:
Tezepelumab(安进和阿斯利康合作开发抗体) (antibody, V domains shown) VH: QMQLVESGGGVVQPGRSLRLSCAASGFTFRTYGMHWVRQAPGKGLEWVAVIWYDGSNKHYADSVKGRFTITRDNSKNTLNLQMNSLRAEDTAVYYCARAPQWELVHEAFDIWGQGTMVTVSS VL: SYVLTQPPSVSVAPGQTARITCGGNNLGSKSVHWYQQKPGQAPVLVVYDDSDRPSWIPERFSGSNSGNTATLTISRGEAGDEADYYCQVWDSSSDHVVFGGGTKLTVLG :: 8.93 µg/mL
抗TSLP人源化单克隆抗体9F8-46H13L (antibody, human IgG2, lambda, V domains shown) VH: QVQLVQSGAEVKKPGASVKVSCCASGYSFTTYWMHWVRQAPGQGLEWMGIIDPSDSETTLNQKFKDRVTLTVDKSTSTAYMELSSLRSEDTAVYYCTRSLDGYFDYWGQGTTVTVSS VL: DIQLTQSPSSLSASVGDRVTITCRAGENIYSYLAWYQQKPGKAPKLLVYNAKILAEGVPSRFSGSGSGTDFTLTISSLQPEDFATYYCQHHYDTPWTFGGGTKLTVLG :: 4.05 µg/mL
抗TSLP人源化单克隆抗体M432-69H13L (antibody, human IgG2, lambda, V domains shown) VH: EVQLVQSGAEVKKPGATVKISCCASAYSFTTYWMHWVQQAPGKGLEWMGLIDPSDSETTLNQKFKDRVTLTVDKSTDTAYMELSSLRSEDTAVYYCARSLDGYFDYWGQGTTVTVSS VL: DIQLTQSPSSLSASVGDRVTITCRAGENIYSYLAWYQQKPGKAPKLLVYNAKILAEGVPSRFSGSGSGTDFTLTISSLQPEDFATYYCQHHYDTPWTFGGGTKLTVLG :: 4.35 µg/mL

*Q* Which value of IC50 has been reported for 抗TSLP人源化单克隆抗体5F10-69H13L (antibody, human IgG2, lambda, V domains shown) VH: EVQLVQSGAEVKKPGATVKISCCASGYSFTSYWMHWVQQAPGKGLEWMGLIDPTDSEISLSQKFKDRVTLTVDKSTDTAYMELSSLRSEDTAVYYCARSLDGFFDQWGQGTTVTVSS VL: DIQLTQSPSSLSASVGDRVTITCRAGENIYSYLAWYQQKPGKAPKLLVYNAKILAEGVPSRFSGSGSGTDFTLTISSLQPEDFATYYCQHHYDTPWTFGGGTKLTVLG in the records?
*A* 7.57 µg/mL
